Reference for the values: BindingDB's records for doi:10.1016/s0960-894x(02)00131-2

Prothrombin/thrombin (Homo sapiens) (UniProt P00734) data, read-out Ki
observation.type: Ki (nM)

a: Nc1ncc(CCNC(=O)[C@@H]2CC[C@H]3CN(S(=O)(=O)C(c4ccccc4)c4ccccc4)CC(=O)N32)[nH]1
b: N=C(N)N1CCC(CNC(=O)[C@@H]2CC[C@H]3CN(S(=O)(=O)C(c4ccccc4)c4ccccc4)CC(=O)N32)CC1
Please indicate which item has the smaller measured Ki: a versus b Your choice should be expressed through its label. b

I: N=C(N)[C@H]1CC[C@H](CNC(=O)[C@@H]2CC[C@H]3CN(S(=O)(=O)C(c4ccccc4)c4ccccc4)CC(=O)N32)CC1
II: N=C(N)c1ccc(CNC(=O)[C@@H]2CC[C@H]3CN(S(=O)(=O)CC(c4ccccc4)c4ccccc4)CC(=O)N32)cc1
Please indicate which item has the smaller measured Ki: I versus II Your choice should be expressed through its label. II
(II: 1 nM, I: 2 nM)
